EXPERIMENTAL SYSTEM: human Insulin-like Growth Factor 1 Receptor (IGF1R), IGF1R (gene 3480) (UniProt P08069)
Sequence (P08069 whole entry, looked up): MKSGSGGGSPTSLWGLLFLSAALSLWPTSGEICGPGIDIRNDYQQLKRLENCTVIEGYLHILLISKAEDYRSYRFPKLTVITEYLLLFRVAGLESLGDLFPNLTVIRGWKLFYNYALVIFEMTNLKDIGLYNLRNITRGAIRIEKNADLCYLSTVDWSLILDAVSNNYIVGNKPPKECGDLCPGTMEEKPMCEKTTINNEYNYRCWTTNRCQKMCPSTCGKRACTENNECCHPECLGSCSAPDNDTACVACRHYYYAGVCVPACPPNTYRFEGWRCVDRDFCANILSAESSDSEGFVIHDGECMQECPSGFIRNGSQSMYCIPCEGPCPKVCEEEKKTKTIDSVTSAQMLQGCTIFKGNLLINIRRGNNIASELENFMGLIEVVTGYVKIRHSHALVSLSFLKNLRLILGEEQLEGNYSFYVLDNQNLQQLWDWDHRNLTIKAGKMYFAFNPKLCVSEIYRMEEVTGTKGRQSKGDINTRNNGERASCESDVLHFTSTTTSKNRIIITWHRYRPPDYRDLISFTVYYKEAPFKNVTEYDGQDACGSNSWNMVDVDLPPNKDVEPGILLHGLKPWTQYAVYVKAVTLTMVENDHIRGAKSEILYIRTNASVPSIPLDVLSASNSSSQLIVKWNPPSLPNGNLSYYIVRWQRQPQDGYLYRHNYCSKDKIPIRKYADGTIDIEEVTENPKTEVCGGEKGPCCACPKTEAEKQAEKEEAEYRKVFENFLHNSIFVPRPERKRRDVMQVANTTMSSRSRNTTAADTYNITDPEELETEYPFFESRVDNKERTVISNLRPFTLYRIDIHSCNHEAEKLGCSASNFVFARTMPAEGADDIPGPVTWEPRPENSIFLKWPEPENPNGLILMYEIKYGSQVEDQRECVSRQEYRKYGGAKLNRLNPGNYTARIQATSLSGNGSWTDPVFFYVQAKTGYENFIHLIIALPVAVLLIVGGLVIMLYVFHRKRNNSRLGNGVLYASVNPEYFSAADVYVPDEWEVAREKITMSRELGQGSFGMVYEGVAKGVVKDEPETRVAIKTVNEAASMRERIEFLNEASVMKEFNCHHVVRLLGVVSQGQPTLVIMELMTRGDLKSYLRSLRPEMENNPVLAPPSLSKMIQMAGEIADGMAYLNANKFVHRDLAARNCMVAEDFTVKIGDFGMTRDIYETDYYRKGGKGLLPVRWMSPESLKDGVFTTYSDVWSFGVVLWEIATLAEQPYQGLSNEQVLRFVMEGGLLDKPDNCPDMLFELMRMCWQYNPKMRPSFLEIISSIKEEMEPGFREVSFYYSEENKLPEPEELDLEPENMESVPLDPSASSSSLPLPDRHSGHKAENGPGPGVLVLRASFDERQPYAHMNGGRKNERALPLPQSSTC
PROCEDURE SUMMARY: NVS_ENZ_hIGF1R: NovaScreen (NVS) Enzymatic Assay for human Insulin-like Growth Factor 1 Receptor (IGF1R)
Results filed as inconclusive are left out. Calls of active or inactive are those of the source. Rule for the calls: active = hit-call score of the fitted dose curve at least 0.9, where 1 is the maximum; inconclusive = response in the unintended direction; inactive = score below 0.9.
Possible outcomes: 1.0 = active, 0.0 = inactive

> print(dat)
                            smiles.notation  class.label
1                O=C(O)CC(O)(CC(=O)O)C(=O)O          1.0
2  CCCCCCCC/C=C\CCCCCCCC(=O)OC[C@@H](O)[C@H]1OC[C@H](O)[C@H]1O          0.0
3  CN(C)C(=O)NC1(c2ccccc2)CCN(CCC[C@]2(c3ccc(Cl)c(Cl)c3)CCCN(C(=O)c3ccccc3)C2)CC1          0.0
4  CCCCc1ccc2c(n1)[C@@H](c1ccc(OC)cc1C[C@H](C)C(=O)O)[C@H](C(=O)O)[C@H]2c1ccc2c(c1)OCO2          0.0
5  c1ccc(C(O[C@@H]2CCCN(CCc3ccc4c(c3)OCO4)C2)c2ccccc2)cc1          0.0
